// data source = the supplement of paper PMC7877785

Experiment: self-splicing fitness, log relative to wild type (ln ratio); higher = more splicing; Tetrahymena group I intron in knt gene, E. coli kanamycin selection, DiMSum; sequences stand for … in CUCUCU…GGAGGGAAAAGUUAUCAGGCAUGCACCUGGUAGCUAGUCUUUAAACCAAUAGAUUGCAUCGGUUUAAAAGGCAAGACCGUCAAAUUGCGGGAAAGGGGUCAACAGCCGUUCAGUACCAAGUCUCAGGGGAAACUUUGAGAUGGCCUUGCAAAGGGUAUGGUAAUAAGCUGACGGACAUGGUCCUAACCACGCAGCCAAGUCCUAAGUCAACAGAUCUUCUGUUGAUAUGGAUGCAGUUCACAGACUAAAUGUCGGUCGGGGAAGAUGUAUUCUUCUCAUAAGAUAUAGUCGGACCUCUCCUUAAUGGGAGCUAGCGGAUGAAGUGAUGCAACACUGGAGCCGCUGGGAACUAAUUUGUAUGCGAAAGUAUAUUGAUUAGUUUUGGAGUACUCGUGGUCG;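 further: selection with 25 µg/mL kanamycin versus none on LB agar overnight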
Details: 37 °C
Property label: self-splicing fitness (ln)
I'd appreciate a reply containing only the number, no unit.

[ask] Give its self-splicing fitness (ln) value. Item: "ACCGAGCAAUAUUACGCAGC"
[reply] -2.84

[ask] Give its self-splicing fitness (ln) value. Item: "UCCAAGCAAUAUUACGACUU"
[reply] -2.54

[ask] Give its self-splicing fitness (ln) value. Item: "GCUUAGCAAUAUUACGAUGG"
[reply] -0.452

[ask] Give its self-splicing fitness (ln) value. Item: "UAAUAGCAAUAUUACGAUUA"
[reply] 0.0261

[ask] Give its self-splicing fitness (ln) value. Item: "CCAAAGCAAUAUUACGGAAC"
[reply] -2.53

[ask] Give its self-splicing fitness (ln) value. Item: "AAACAGCAAUAUUACGAACA"
[reply] -0.635

[ask] Give its self-splicing fitness (ln) value. Item: "GUGAAGCAAUAUUACGCAUG"
[reply] -1.23

[ask] Give its self-splicing fitness (ln) value. Item: "AUGUAGCAAUAUUACGGUCA"
[reply] -0.745

[ask] Give its self-splicing fitness (ln) value. Item: "GGCUAGCAAUAUUACGCGAG"
[reply] -2.74

[ask] Give its self-splicing fitness (ln) value. Item: "UCUGAGCAAUAUUACGCCUA"
[reply] -0.697

[ask] Give its self-splicing fitness (ln) value. Item: "GCCGAGCAAUAUUACGGGGG"
[reply] -3.02

[ask] Give its self-splicing fitness (ln) value. Item: "UGGGAGCAAUAUUACGUUGA"
[reply] -2.06

[ask] Give its self-splicing fitness (ln) value. Item: "UGUCAGCAAUAUUACGUGCG"
[reply] 0.159

[ask] Give its self-splicing fitness (ln) value. Item: "AUAUAGCAAUAUUACGUUAU"
[reply] -1.65

[ask] Give its self-splicing fitness (ln) value. Item: "AGCCAGCAAUAUUACGCGUU"
[reply] -0.95

[ask] Give its self-splicing fitness (ln) value. Item: "CAGCAGCAAUAUUACGGUCC"
[reply] -1.63

[ask] Give its self-splicing fitness (ln) value. Item: "GCCUAGCAAUAUUACGACGC"
[reply] 0.255

[ask] Give its self-splicing fitness (ln) value. Item: "GGCCAGCAAUAUUACGAUUA"
[reply] -2.05

[ask] Give its self-splicing fitness (ln) value. Item: "AACCAGCAAUAUUACGGACU"
[reply] 0.226

[ask] Give its self-splicing fitness (ln) value. Item: "CGCUAGCAAUAUUACGCUGA"
[reply] -2.26

[ask] Give its self-splicing fitness (ln) value. Item: "CUCGAGCAAUAUUACGCGGA"
[reply] -2.63

[ask] Give its self-splicing fitness (ln) value. Item: "AAGUAGCAAUAUUACGAGAG"
[reply] -1.05

[ask] Give its self-splicing fitness (ln) value. Item: "CACGAGCAAUAUUACGAAGU"
[reply] -2.23

[ask] Give its self-splicing fitness (ln) value. Item: "AGUCAGCAAUAUUACGGAGA"
[reply] -1.53

[ask] Give its self-splicing fitness (ln) value. Item: "AUCCAGCAAUAUUACGAUCG"
[reply] -3.02

[ask] Give its self-splicing fitness (ln) value. Item: "GAGAAGCAAUAUUACGGCUA"
[reply] -0.0778

[ask] Give its self-splicing fitness (ln) value. Item: "GGACAGCAAUAUUACGACAU"
[reply] -0.0143

[ask] Give its self-splicing fitness (ln) value. Item: "GCGUAGCAAUAUUACGGAAU"
[reply] -0.8

[ask] Give its self-splicing fitness (ln) value. Item: "UAAGAGCAAUAUUACGAUUU"
[reply] -0.0704

[ask] Give its self-splicing fitness (ln) value. Item: "UAGCAGCAAUAUUACGCCUG"
[reply] -0.602

[ask] Give its self-splicing fitness (ln) value. Item: "UGUAAGCAAUAUUACGUGGA"
[reply] -1.78

[ask] Give its self-splicing fitness (ln) value. Item: "AUGGAGCAAUAUUACGAUAG"
[reply] -1.67

[ask] Give its self-splicing fitness (ln) value. Item: "ACAAAGCAAUAUUACGCGAG"
[reply] -0.621

[ask] Give its self-splicing fitness (ln) value. Item: "CUCGAGCAAUAUUACGAUCG"
[reply] -1.71

----------
Test: self-splicing fitness, log relative to wild type (ln ratio); higher = more splicing; Tetrahymena group I intron in knt gene, E. coli kanamycin selection, DiMSum; sequences stand for … in CUCUCU…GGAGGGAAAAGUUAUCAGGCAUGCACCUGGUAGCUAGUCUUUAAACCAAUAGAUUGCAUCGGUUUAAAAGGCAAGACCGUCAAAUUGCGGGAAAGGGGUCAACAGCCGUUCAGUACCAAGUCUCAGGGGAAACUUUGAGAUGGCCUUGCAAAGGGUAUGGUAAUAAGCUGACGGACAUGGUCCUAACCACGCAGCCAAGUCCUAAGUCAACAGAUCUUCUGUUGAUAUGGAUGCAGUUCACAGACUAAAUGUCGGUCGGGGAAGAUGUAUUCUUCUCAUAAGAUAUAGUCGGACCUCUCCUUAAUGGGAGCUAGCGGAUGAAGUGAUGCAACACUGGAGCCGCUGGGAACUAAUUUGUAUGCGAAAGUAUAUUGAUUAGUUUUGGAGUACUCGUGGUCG
Details: 37 °C
# self-splicing fitness (ln) >= -2 gives Criterion met, anything below gives Criterion not met

[ask] Is the recorded value of self-splicing fitness (ln) equal to or greater than -2 for this sequence? "GGCCAGCAAUAUUACGGCCG"
[reply] Criterion not met

[ask] Is the recorded value of self-splicing fitness (ln) equal to or greater than -2 for this sequence? "AGGUAGCAAUAUUACGUAGC"
[reply] Criterion met

[ask] Is the recorded value of self-splicing fitness (ln) equal to or greater than -2 for this sequence? "CCGUAGCAAUAUUACGUUAC"
[reply] Criterion not met

[ask] Is the recorded value of self-splicing fitness (ln) equal to or greater than -2 for this sequence? "ACUAAGCAAUAUUACGUUGC"
[reply] Criterion not met

[ask] Is the recorded value of self-splicing fitness (ln) equal to or greater than -2 for this sequence? "GUGCAGCAAUAUUACGGUGU"
[reply] Criterion met

[ask] Is the recorded value of self-splicing fitness (ln) equal to or greater than -2 for this sequence? "GAUAAGCAAUAUUACGCGUC"
[reply] Criterion not met

[ask] Is the recorded value of self-splicing fitness (ln) equal to or greater than -2 for this sequence? "UGAGAGCAAUAUUACGUUAU"
[reply] Criterion not met

[ask] Is the recorded value of self-splicing fitness (ln) equal to or greater than -2 for this sequence? "AUUAAGCAAUAUUACGCGUU"
[reply] Criterion met

[ask] Is the recorded value of self-splicing fitness (ln) equal to or greater than -2 for this sequence? "AACCAGCAAUAUUACGAUGU"
[reply] Criterion met

[ask] Is the recorded value of self-splicing fitness (ln) equal to or greater than -2 for this sequence? "ACCCAGCAAUAUUACGCUUA"
[reply] Criterion met

[ask] Is the recorded value of self-splicing fitness (ln) equal to or greater than -2 for this sequence? "AUUAAGCAAUAUUACGGGAA"
[reply] Criterion met

[ask] Is the recorded value of self-splicing fitness (ln) equal to or greater than -2 for this sequence? "UGUAAGCAAUAUUACGCAGA"
[reply] Criterion met

[ask] Is the recorded value of self-splicing fitness (ln) equal to or greater than -2 for this sequence? "UAUUAGCAAUAUUACGUACC"
[reply] Criterion met

[ask] Is the recorded value of self-splicing fitness (ln) equal to or greater than -2 for this sequence? "CCCUAGCAAUAUUACGUUGG"
[reply] Criterion not met

[ask] Is the recorded value of self-splicing fitness (ln) equal to or greater than -2 for this sequence? "AAGCAGCAAUAUUACGAAGG"
[reply] Criterion not met

[ask] Is the recorded value of self-splicing fitness (ln) equal to or greater than -2 for this sequence? "UCUAAGCAAUAUUACGGAUA"
[reply] Criterion met

[ask] Is the recorded value of self-splicing fitness (ln) equal to or greater than -2 for this sequence? "GCCUAGCAAUAUUACGAAUU"
[reply] Criterion met

[ask] Is the recorded value of self-splicing fitness (ln) equal to or greater than -2 for this sequence? "AAACAGCAAUAUUACGGGGU"
[reply] Criterion not met

[ask] Is the recorded value of self-splicing fitness (ln) equal to or greater than -2 for this sequence? "UCUAAGCAAUAUUACGCGGC"
[reply] Criterion met

[ask] Is the recorded value of self-splicing fitness (ln) equal to or greater than -2 for this sequence? "CCGUAGCAAUAUUACGCAAG"
[reply] Criterion met

[ask] Is the recorded value of self-splicing fitness (ln) equal to or greater than -2 for this sequence? "CGCAAGCAAUAUUACGAACA"
[reply] Criterion met

[ask] Is the recorded value of self-splicing fitness (ln) equal to or greater than -2 for this sequence? "CUGGAGCAAUAUUACGAUUG"
[reply] Criterion met

[ask] Is the recorded value of self-splicing fitness (ln) equal to or greater than -2 for this sequence? "AGAAAGCAAUAUUACGCAGA"
[reply] Criterion met

[ask] Is the recorded value of self-splicing fitness (ln) equal to or greater than -2 for this sequence? "GCUAAGCAAUAUUACGUCAA"
[reply] Criterion met

[ask] Is the recorded value of self-splicing fitness (ln) equal to or greater than -2 for this sequence? "CCUAAGCAAUAUUACGCACC"
[reply] Criterion not met

[ask] Is the recorded value of self-splicing fitness (ln) equal to or greater than -2 for this sequence? "CCACAGCAAUAUUACGUAUG"
[reply] Criterion met

[ask] Is the recorded value of self-splicing fitness (ln) equal to or greater than -2 for this sequence? "GUUCAGCAAUAUUACGUCGU"
[reply] Criterion met

[ask] Is the recorded value of self-splicing fitness (ln) equal to or greater than -2 for this sequence? "AGGGAGCAAUAUUACGCGUA"
[reply] Criterion not met

[ask] Is the recorded value of self-splicing fitness (ln) equal to or greater than -2 for this sequence? "UGGUAGCAAUAUUACGGAUG"
[reply] Criterion met

[ask] Is the recorded value of self-splicing fitness (ln) equal to or greater than -2 for this sequence? "GUGCAGCAAUAUUACGUAGA"
[reply] Criterion met

[ask] Is the recorded value of self-splicing fitness (ln) equal to or greater than -2 for this sequence? "GGGGAGCAAUAUUACGUAGA"
[reply] Criterion met

[ask] Is the recorded value of self-splicing fitness (ln) equal to or greater than -2 for this sequence? "CCGGAGCAAUAUUACGUUGU"
[reply] Criterion not met

[ask] Is the recorded value of self-splicing fitness (ln) equal to or greater than -2 for this sequence? "CUAAAGCAAUAUUACGAUAG"
[reply] Criterion met
